Origin of values: patent US5140047A

System: human monocyte PGE2 production (cyclooxygenase activity)
assay-method-text: PGE2 production from human monocytes in vitro (A23187 stimulated, RIA)
Type: cell-based
test-conditions: Homo sapiens, Monocyte; read-out: IC50, production of the prostaglandin PGE2 (human monocyte)
outcome-measure: IC50

[
  {
    "compound": "NC(=O)N(O)C1CCCc2c1ccc1ccccc21 (stereo not shown) [Example 1]",
    "experimental-target": "human monocyte PGE2 production (cyclooxygenase activity)",
    "outcome-measure": "IC50",
    "measured": "> 30 µM"
  }
]
